System: Key Grass and Sedge Weeds as well as Grass Crops
Assay Text: Post-Emergent Test II (Table 6)
Format: in vivo
Experimental Conditions: post-emergence, 336 h, DIGSA: crabgrass (Digitaria sanguinalis), 70 g ai/ha, 14 days after application, read-out: Visual Growth Reduction (%) 14 Days After Application DIGSA
Here the recorded pest or weed control at 70 g/ha is given for each entry.
Recorded Metric: pest or weed control at 70 g/ha

smiles_text=Nc1c(F)c(-c2ccc(OC(F)F)nc2)nc(C(=O)O)c1Cl target="Key Grass and Sedge Weeds as well as Grass Crops" observed_measurement="60 to 74%"
smiles_text=Nc1cc(-c2ccc(Cl)nc2Cl)nc(C(=O)O)c1Cl target="Key Grass and Sedge Weeds as well as Grass Crops" observed_measurement="0 to 29%"
smiles_text=COC(=O)c1nc(-c2cccnc2)c(F)c(N)c1Cl target="Key Grass and Sedge Weeds as well as Grass Crops" observed_measurement="0 to 29%"
smiles_text=COC(=O)c1nc(-c2ccc(Cl)c(F)c2Cl)cc(N)c1Cl target="Key Grass and Sedge Weeds as well as Grass Crops" observed_measurement="75 to 84%"
smiles_text=COc1nc(C(F)(F)F)ccc1-c1nc(C(=O)O)c(Cl)c(N)c1F target="Key Grass and Sedge Weeds as well as Grass Crops" observed_measurement="0 to 29%"
smiles_text=COC(=O)c1nc(-c2ccc(I)nc2)c(F)c(N)c1Cl target="Key Grass and Sedge Weeds as well as Grass Crops" observed_measurement="60 to 74%"
smiles_text=COc1ccc(-c2nc(C(=O)O)c(Cl)c(N)c2F)cn1 target="Key Grass and Sedge Weeds as well as Grass Crops" observed_measurement="60 to 74%"
